The measured values listed here are drawn from patent EP0350946A2.

Some compounds, each annotated with its measured Curative effect Cucumber.
System: Pseudoperonospora cubensis
assay-overview: Curative effect on downy mildew of cucumber
Assay type: in vivo, cucumber (var: Sagamihanjiro)
measurement-context: 100 ppm, sprayed the day after inoculation, observed after 8 days; percent disease control
Value expressed in %; do not type the unit.

Worked examples follow.
compound: CCOC(C#N)NC(=O)c1sc(C)nc1C (stereo not shown) [Compound 2]
scale-unit: %
Curative effect Cucumber: 95
--
compound: C#CCCOC(C#N)NC(=O)c1sc(C)nc1CC (stereo not shown) [Compound 10]
scale-unit: %
Curative effect Cucumber: 95
--
compound: CCc1nc(C)sc1C(=O)NC(C#N)OCCC#N (stereo not shown) [Compound 11]
scale-unit: %
Curative effect Cucumber: 90
--
compound: CCCOC(C#N)NC(=O)c1sc(C)nc1CC (stereo not shown) [Compound 7]
scale-unit: %
Curative effect Cucumber: 90

The compound CCCc1nc(C)sc1C(=O)NC(C#N)OCC (stereo not shown) [Compound 13] showed Curative effect Cucumber equal to 90

// Curative effect Cucumber lookup, compound = CCOC(C#N)NC(=O)c1sc(C)nc1C(C)C (stereo not shown) [Compound 14] , result: 100

get_value(item= CCSC(C#N)NC(=O)c1sc(C)nc1CC (stereo not shown) [Compound 12] , readout=Curative effect Cucumber) returns 90

* * *

System: Pseudoperonospora cubensis
assay-overview: Curative effect on downy mildew of cucumber
Assay type: in vivo, cucumber (var: Sagamihanjiro)
measurement-context: 200 ppm, sprayed the day after inoculation, observed after 8 days; percent disease control
endpoint: Curative effect Cucumber (%)
Report as a plain number; the unit % is understood.

compound: C#CCCOC(C#N)NC(=O)c1sc(C)nc1CC (stereo not drawn) [Compound 10]
endpoint: Curative effect Cucumber
scale-unit: %
recorded-result: 100
//
compound: CCc1nc(C)sc1C(=O)NC(C#N)OCCC#N (stereo not drawn) [Compound 11]
endpoint: Curative effect Cucumber
scale-unit: %
recorded-result: 100
//
compound: CCCc1nc(C)sc1C(=O)NC(C#N)OCC (stereo not drawn) [Compound 13]
endpoint: Curative effect Cucumber
scale-unit: %
recorded-result: 95

Note to self: Curative effect Cucumber recorded for CCOC(C#N)NC(=O)c1sc(C)nc1C(C)C (stereo not drawn) [Compound 14] was 100

# Curative effect Cucumber of CCSC(C#N)NC(=O)c1sc(C)nc1CC (stereo not drawn) [Compound 12] = 100

response.value for CCCOC(C#N)NC(=O)c1sc(C)nc1CC (stereo not drawn) [Compound 7] (field: Curative effect Cucumber) = 100

* * *

Test system: Pseudoperonospora cubensis
assay-overview: Curative effect on downy mildew of cucumber
Format: in vivo, cucumber (var: Sagamihanjiro)
measurement-context: 200 ppm, sprayed the day after inoculation, observed after 8 days; percent disease control
Measured Curative effect Cucumber, listed per entry for reference.
Respond with the bare value in %.

So, CCOC(C#N)NC(=O)c1sc(C)nc1C (stereo not drawn) ? Its Curative effect Cucumber was 100

Input C#CCCOC(C#N)NC(=O)c1sc(C)nc1C (stereo not drawn) . Output Curative effect Cucumber: 100

The reported value for CCOC(C#N)NC(=O)c1sc(C)nc1CC (stereo not drawn) in terms of Curative effect Cucumber is 100
